These measurements were taken from patent US11752166B2.

test system: HCV GT1b (Con1, HCV-1b) replicon; test: HCV GT1b replicon 2-drug combination assay (firefly luciferase, MacSynergy II); format: cell-based, Hepatitis C virus; settings: 2nd inhibitor (NS5A inhibitor) in combination with Compound A
Measurement Type: Combination regimen effect

COC(=O)N[C@H](C(=O)N1CCC[C@H]1c1nc2cc([C@H]3CC[C@H](c4cc5nc([C@@H]6CCCN6C(=O)[C@@H](NC(=O)OC)[C@@H](C)OC)[nH]c5cc4F)N3c3cc(F)c(N4CCC(c5ccc(F)cc5)CC4)c(F)c3)c(F)cc2[nH]1)[C@@H](C)OC | Additive
COC[C@H]1C[C@@H](c2nc(-c3ccc4c(c3)COc3cc5c(ccc6nc([C@@H]7CC[C@H](C)N7C(=O)[C@@H](NC(=O)OC)C(C)C)[nH]c65)cc3-4)c[nH]2)N(C(=O)[C@H](NC(=O)OC)c2ccccc2)C1 | Additive
COC(=O)N[C@H](C(=O)N1C[C@H](SC)C[C@@H]1c1ncc(-c2ccc(-c3ccc(-c4[nH]c([C@@H]5CCCN5C(=O)[C@@H](NC(=O)OC)c5ccccc5)nc4Cl)cc3)cc2)[nH]1)c1ccccc1 | Additive
